Target: p53-MDM2 interaction (GST-MDM2 protein aa 23-117 / biotinylated p53 wt peptide) (Homo sapiens (Human), UniProt Q00987)
Sequence (Q00987 23-117): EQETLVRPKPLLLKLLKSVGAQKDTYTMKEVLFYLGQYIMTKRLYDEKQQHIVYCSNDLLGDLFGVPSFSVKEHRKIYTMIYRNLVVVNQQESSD
Test: Mdm2-p53 Inhibition AlphaScreen
Conditions: GST-MDM2 (aa 23-117) / biotinylated p53 wt peptide
Recorded pIC50 for the following compounds
pIC50 here is simply -log10 of the concentration when that concentration is written in mol/L.

Here are 5 compounds together with their reported answers.
> print(dat)
                                   compound  value.kind  measurement
1  COCCN1[C@H]2CCn3c(nc4cc(C(=O)O)ccc43)[C@H]2[C@H](c2cccc(Cl)c2F)[C@]12C(=O)Nc1cc(Cl)ccc12       pIC50         7.96
2  O=C(O)c1ccc2c(c1)nc1n2C[C@H]2[C@@H]1[C@H](c1cccc(Cl)c1F)[C@]1(C(=O)Nc3cc(Cl)ccc31)N2CC1CC1 [Ib-175]       pIC50         8.52
3  O=C(NC(CO)(CO)CO)c1ccc2c(c1)nc1n2CC[C@H]2[C@@H]1[C@H](c1cccc(Cl)c1F)[C@]1(C(=O)Nc3cc(Cl)ccc31)N2CC1CC1       pIC50         8.22
4  COCC(COC)NC(=O)c1ccc2c3n(nc2c1)[C@@H]1[C@H](C3)N(CC2CCC2)[C@@]2(C(=O)Nc3cc(Cl)ccc32)[C@H]1c1cccc(Cl)c1F       pIC50         8.00
5  CN(C)C(=O)c1ccc2c(c1)nc1n2CC[C@H]2[C@@H]1[C@H](c1cccc(Cl)c1F)[C@]1(C(=O)Nc3cc(Cl)ccc31)N2CC1CC1       pIC50         7.96

Next, consider the following compound.
Please supply the value of reported pIC50 for the item O=C(O)c1ccc2c(c1)nc1n2CC[C@H]2[C@@H]1[C@H](c1cccc(Cl)c1F)[C@]1(C(=O)Nc3cc(Cl)ccc31)N2CC1CC(F)(F)C1
7.85
